Test system: Saccharomyces cerevisiae
assay.text: protein stability index of tFT-peptide fusion (C-terminal peptide) (PSI (0-1 scale)); higher = more stable (slower turnover)
assay.context: genetic background: wild type; temperature: 30 C
So basically, the class depends on measured protein stability index, and the ranges are label 0 (below 0.6), label 1 (0.6 to below 0.7), label 2 (0.7 or more)

Reference set, count: 6
>>> print(df.to_string())
   sequence_string  group_label
0     RVVPSVSVWLPP      label 1
1     LDRLTTWTLIVR      label 0
2     LPSPSSSPPPFP      label 2
3     PPPSPDPPLTPF      label 2
4     FDWLFFFVNFVV      label 0
5     RSRPPPPLLPSV      label 2

Categorize the following entry: SVGWGFWARFIG
label 0

Categorize the following entry: KKKKKQKKKKKK
label 1

Categorize the following entry: PSRRLRHFATSP
label 2

Categorize the following entry: GRGGGGVEPCFV
label 1

Categorize the following entry: CKQIESRLLEGQ
label 1

Categorize the following entry: IPRGTTTFLLEV
label 1

Categorize the following entry: RVSGILQHFTSA
label 2

Categorize the following entry: FPFFLPMASLFC
label 0

Categorize the following entry: RPPFPPLPLPPP
label 1

Categorize the following entry: PTPNPGHTRACL
label 2

Categorize the following entry: GLYSRPVNSNSF
label 2

Categorize the following entry: HVLQFQTNIRQN
label 1

---

Examples of sequences with documented protein stability index follow.
Tested on: Saccharomyces cerevisiae;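 note: PSI is a weighted mean of sequencing reads over stability bins, variants kept only with over 10 reads, mCherry proximal and sfGFP distal, peptide attached via GGGS linker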
assay.text: protein stability index of tFT-peptide fusion (C-terminal peptide) (PSI (0-1 scale)); higher = more stable (slower turnover)
assay.context: genetic background: wild type; temperature: 30 C

   sequence_string            quantity_kind  meas_value
0     ERGGGRRRLSNA  protein stability index       0.656
1     FSLHTSLLPSVP  protein stability index       0.787

Tell me the measured protein stability index of SPLPPPSHALLP , please.
0.712

Tell me the measured protein stability index of DNHGWKVEGRLL , please.
0.686

Tell me the measured protein stability index of PFSLPPPRPPRP , please.
0.684

Tell me the measured protein stability index of SVSGTPLRALLH , please.
0.622

Tell me the measured protein stability index of YINRKKKKINKT , please.
0.675

Tell me the measured protein stability index of TEVSAPAPPCLW , please.
0.637

Tell me the measured protein stability index of RKEGRRGRRGAK , please.
0.691

Tell me the measured protein stability index of GGVSGESAVVSV , please.
0.649

Tell me the measured protein stability index of PRYSVRGQPRET , please.
0.728

Tell me the measured protein stability index of KKIYEKRKKLRK , please.
0.756

Tell me the measured protein stability index of TSEIGKEINYRK , please.
0.66

Tell me the measured protein stability index of LCGAFLPPPFSR , please.
0.686

Tell me the measured protein stability index of GFALGSFMLVLR , please.
0.0977

Tell me the measured protein stability index of ASGAPGRGRGVV , please.
0.697

Tell me the measured protein stability index of SMYHSCTFRTTV , please.
0.586

Tell me the measured protein stability index of AELSTRPPAPPL , please.
0.715

Tell me the measured protein stability index of PPLSPPPPPPVP , please.
0.688
